Source: patent US20200308270A1

Target: T1, recombinant human sFas receptor (human, UniProt P25445 17-173, limits assumed)
T1 construct: Bought reagent
T1 sequence (looked up): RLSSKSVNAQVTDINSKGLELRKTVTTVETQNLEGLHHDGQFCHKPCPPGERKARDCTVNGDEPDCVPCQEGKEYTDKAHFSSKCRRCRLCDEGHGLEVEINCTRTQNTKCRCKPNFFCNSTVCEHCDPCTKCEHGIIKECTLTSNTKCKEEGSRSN
Experiment: SPR (Biacore T200), Fas immobilized, Fab analyte
binders and their reported pKd
Convention used: pKd is expressed as -log10 of the molar concentration.

For reference, reported pKd for EP6b_B01 designed Vlambda-Ckappa chimeric Fab, design 34 (E83I_D85T_T105E_V106I) (Fab, name in Kabat numbering, V domains shown) VH: QLQLQESGPGLVKPSETLSLTCTVSGASISANSYYGVWVRQSPGKGLEWVGSIAYRGNSNSGSTYYNPSLKSRATVSVDSSKNQVSLRLTSVTAADTALYYCARRQLLDDGTGYQWAAFDVWGQGTMVTVSS VL: QSVLTQPPSVSEAPRQTVTISCSGNSSNIGRYPVNWYQQLPGKAPKLLIYSDNLRFSGVPDRFSGSKSGTTASLAIRDLLSEDIATYYCSTWDDTLEGWVFGGGTKVEILR stands at 10.32

---
For reference, reported pKd for EP6b_B01 Vlambda-Ckappa chimeric Fab (Fab, V domains shown, Parent chimeric Fab without stabilizing substitutions; also called chimera; VL-CK chimeric Fab) VH: QLQLQESGPGLVKPSETLSLTCTVSGASISANSYYGVWVRQSPGKGLEWVGSIAYRGNSNSGSTYYNPSLKSRATVSVDSSKNQVSLRLTSVTAADTALYYCARRQLLDDGTGYQWAAFDVWGQGTMVTVSS VL: QSVLTQPPSVSEAPRQTVTISCSGNSSNIGRYPVNWYQQLPGKAPKLLIYSDNLRFSGVPDRFSGSKSGTTASLAIRDLLSEDEADYYCSTWDDTLEGWVFGGGTKVTVLR stands at 10.29

For reference, reported pKd for EP6b_B01 designed Vlambda-Ckappa chimeric Fab, design 26 (E83V_D85T) (Fab, name in Kabat numbering, V domains shown) VH: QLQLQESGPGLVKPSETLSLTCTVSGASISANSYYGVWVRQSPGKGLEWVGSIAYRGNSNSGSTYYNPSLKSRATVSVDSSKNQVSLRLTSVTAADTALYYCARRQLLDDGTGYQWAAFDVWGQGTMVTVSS VL: QSVLTQPPSVSEAPRQTVTISCSGNSSNIGRYPVNWYQQLPGKAPKLLIYSDNLRFSGVPDRFSGSKSGTTASLAIRDLLSEDVATYYCSTWDDTLEGWVFGGGTKVTVLR stands at 10.31

For reference, reported pKd for EP6b_B01 designed Vlambda-Ckappa chimeric Fab, design 29 (E83V_D85T_T105E_V106I) (Fab, name in Kabat numbering, V domains shown) VH: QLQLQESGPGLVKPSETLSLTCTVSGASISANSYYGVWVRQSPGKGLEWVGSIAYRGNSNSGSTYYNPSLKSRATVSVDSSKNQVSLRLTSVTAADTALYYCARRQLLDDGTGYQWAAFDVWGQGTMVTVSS VL: QSVLTQPPSVSEAPRQTVTISCSGNSSNIGRYPVNWYQQLPGKAPKLLIYSDNLRFSGVPDRFSGSKSGTTASLAIRDLLSEDVATYYCSTWDDTLEGWVFGGGTKVEILR stands at 10.32

For reference, reported pKd for EP6b_B01 designed Vlambda-Ckappa chimeric Fab, design 18 (E83F_D85T_T105E) (Fab, name in Kabat numbering, V domains shown) VH: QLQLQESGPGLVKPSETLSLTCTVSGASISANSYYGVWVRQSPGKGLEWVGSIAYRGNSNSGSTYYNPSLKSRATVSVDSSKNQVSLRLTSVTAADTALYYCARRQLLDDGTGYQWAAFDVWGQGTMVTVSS VL: QSVLTQPPSVSEAPRQTVTISCSGNSSNIGRYPVNWYQQLPGKAPKLLIYSDNLRFSGVPDRFSGSKSGTTASLAIRDLLSEDFATYYCSTWDDTLEGWVFGGGTKVEVLR stands at 10.35
